Entries and their protein stability index
# Test system: Saccharomyces cerevisiae
# TEST_PROTOCOL: protein stability index of tFT-peptide fusion (C-terminal peptide) (PSI (0-1 scale)); higher = more stable (slower turnover);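 note: PSI is a weighted mean of sequencing reads over stability bins, variants kept only with over 10 reads, mCherry proximal and sfGFP distal, peptide attached via GGGS linker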
# SETTINGS: genetic background: wild type; temperature: 30 C
ENDPOINT_LABEL: protein stability index

{"columns": ["SEQUENCE_INPUT", "RESULT_VALUE"],
 "data": [
  ["MARIASAQTSLT", 0.688],
  ["LVRNGLCCTSRQ", 0.704],
  ["AGGAAIVERAMK", 0.686],
  ["APPPPPALPEYQ", 0.685],
  ["QSRYASDLRNGL", 0.699],
  ["AIRTPPTRTPPA", 0.71]
]}

* * *

# Tested on: Saccharomyces cerevisiae
# TEST_PROTOCOL: protein stability index of tFT-peptide fusion (C-terminal peptide) (PSI (0-1 scale)); higher = more stable (slower turnover)
# SETTINGS: genetic background: wild type; temperature: 30 C
Reported protein stability index values for a set of sequences
ENDPOINT_LABEL: protein stability index

{"columns": ["SEQUENCE_INPUT", "ENDPOINT_LABEL", "RESULT_VALUE"],
 "data": [
  ["PPVLQPLLALAL", "protein stability index", 0.535],
  ["LSALPPRPFSYR", "protein stability index", 0.705],
  ["FKSCSLHCSRCS", "protein stability index", 0.682],
  ["AWGRRGGRMKVG", "protein stability index", 0.62],
  ["TAPGYLGFSPFE", "protein stability index", 0.713],
  ["LPVPPPHPPCPL", "protein stability index", 0.65],
  ["PPSPRLFRFLPP", "protein stability index", 0.631],
  ["PWVNLFPCQINI", "protein stability index", 0.639],
  ["RPGYDRNRTGMI", "protein stability index", 0.738],
  ["CAIGECRGAGVS", "protein stability index", 0.679],
  ["SARRFPPPPSSS", "protein stability index", 0.702],
  ["RLFFSRSVRSFF", "protein stability index", 0.529],
  ["VFADHPSMHILS", "protein stability index", 0.72],
  ["PLHPSFPPPPAP", "protein stability index", 0.515],
  ["PPAPPLSSPPPS", "protein stability index", 0.662],
  ["YIPPGNTTVPSC", "protein stability index", 0.694],
  ["SRFPPDTFFSFL", "protein stability index", 0.802],
  ["LFLDSTSTLPAP", "protein stability index", 0.662],
  ["PPPPSSPPHLPF", "protein stability index", 0.651],
  ["PGPNPASCIPTW", "protein stability index", 0.683],
  ["VGSSRWRHVGRR", "protein stability index", 0.674]
]}

* * *

# Test system: Saccharomyces cerevisiae
# TEST_PROTOCOL: protein stability index of tFT-peptide fusion (C-terminal peptide) (PSI (0-1 scale)); higher = more stable (slower turnover)
# SETTINGS: genetic background: cdc34-1; temperature: 37 C

{"columns": ["SEQUENCE_INPUT", "protein stability index"],
 "data": [
  ["CFFGFRAGLFLG", 0.507],
  ["SLVPSIFLFRIF", 0.566],
  ["LCIFFWFSSFFL", 0.471],
  ["FPVWTALLTVRA", 0.0896],
  ["SLVVMGSLWLRI", 0.275],
  ["GVCLGFICVGFC", 0.494],
  ["LLMWVLFDCHYS", 0.39],
  ["LEGLLIRVYITF", 0.105],
  ["WFCYFSLYVFLL", 0.0995],
  ["TDSSWEVSLMVG", 0.679],
  ["VIAYSLLSWGDF", 0.308],
  ["LSRLIFKVSVLM", 0.57],
  ["LDLPFESGIACF", 0.32],
  ["PFVATRVSCFLT", 0.542],
  ["SMPWFWFVRGIG", 0.497],
  ["IRACGCSFLWVC", 0.465],
  ["IFLGFGPLFGRL", 0.862],
  ["SFIFFVSCFFIF", 0.274],
  ["CVCLWCFLVWAR", 0.307],
  ["RIVSGVVLLVFV", 0.404],
  ["LLSYMVSLVVYL", 0.127],
  ["IVRSLFGYLCVV", 0.571],
  ["WQGLSGSPILVI", 0.197]
]}

* * *

Recorded protein stability index values for a group of sequences are listed next.
# Tested on: Saccharomyces cerevisiae
# TEST_PROTOCOL: protein stability index of tFT-peptide fusion (C-terminal peptide) (PSI (0-1 scale)); higher = more stable (slower turnover)
# SETTINGS: genetic background: wild type; temperature: 30 C

{"columns": ["SEQUENCE_INPUT", "protein stability index"],
 "data": [
  ["LHLPLPPLQLSL", 0.697],
  ["TLDTCVPGANTF", 0.713],
  ["WGLGLLGGCWGV", 0.679],
  ["WGAAGRAGTERH", 0.682],
  ["APFSALFPANSV", 0.719],
  ["THPPSFHPSRAP", 0.693]
]}

* * *

# Test system: Saccharomyces cerevisiae
# TEST_PROTOCOL: protein stability index of tFT-peptide fusion (C-terminal peptide) (PSI (0-1 scale)); higher = more stable (slower turnover)
# SETTINGS: genetic background: wild type; temperature: 30 C

{"columns": ["SEQUENCE_INPUT", "protein stability index"],
 "data": [
  ["GVLGLDLSVVGG", 0.716],
  ["VFQRFLLFTISP", 0.61],
  ["IVRSLFGYLCVV", 0.467],
  ["QEKTKTYPIPQR", 0.688],
  ["WWSFVGACDGVG", 0.549],
  ["RWGGGKWWRGAE", 0.659],
  ["AGAFVGAPVGGE", 0.713],
  ["TCLWVCAWGFGG", 0.716],
  ["APPPAAPALSPR", 0.718],
  ["KKQKKWQSNTIR", 0.696],
  ["SDPASVIPMELE", 0.673],
  ["YGSGSDGRGGPG", 0.662],
  ["FLGECSLLSGFL", 0.694],
  ["VYQAFIFRMSLF", 0.243],
  ["ARPPTPLRKGAP", 0.673]
]}

* * *

Attribute: protein stability index
# Tested on: Saccharomyces cerevisiae
# TEST_PROTOCOL: protein stability index of tFT-peptide fusion (C-terminal peptide) (PSI (0-1 scale)); higher = more stable (slower turnover)
# SETTINGS: genetic background: wild type; temperature: 30 C

{"columns": ["SEQUENCE_INPUT", "ASSAYED_SYSTEM", "protein stability index"],
 "data": [
  ["SPSLPPLSPPNP", "Saccharomyces cerevisiae", 0.699],
  ["ASLLGLLIHLGR", "Saccharomyces cerevisiae", 0.695],
  ["LASGSVSCFWSG", "Saccharomyces cerevisiae", 0.71],
  ["WVPPPPYSPFSL", "Saccharomyces cerevisiae", 0.695],
  ["RCVSLDVPPTGA", "Saccharomyces cerevisiae", 0.688],
  ["TSLALAFTFAIP", "Saccharomyces cerevisiae", 0.703],
  ["LLPTSVFLPSLF", "Saccharomyces cerevisiae", 0.489],
  ["PAFRSDKQQSQE", "Saccharomyces cerevisiae", 0.703],
  ["VFGGSLICVFRV", "Saccharomyces cerevisiae", 0.567],
  ["YNKIRNNEKKMT", "Saccharomyces cerevisiae", 0.36],
  ["PSKLNLSRKPEC", "Saccharomyces cerevisiae", 0.677],
  ["ENRGSGLQACGA", "Saccharomyces cerevisiae", 0.716],
  ["MWVCGFVGGGGG", "Saccharomyces cerevisiae", 0.654],
  ["LIGALSDCGFLG", "Saccharomyces cerevisiae", 0.683],
  ["LYKSEGVYTGFW", "Saccharomyces cerevisiae", 0.729],
  ["GWIAEFGLAGGP", "Saccharomyces cerevisiae", 0.661],
  ["SSPLPPPSPLPA", "Saccharomyces cerevisiae", 0.678],
  ["SAGVIVPGRAGR", "Saccharomyces cerevisiae", 0.761],
  ["PPHSPETVPARP", "Saccharomyces cerevisiae", 0.688],
  ["CSKRTGRKSVTY", "Saccharomyces cerevisiae", 0.73],
  ["KEKKAKKSRKKR", "Saccharomyces cerevisiae", 0.665],
  ["RHTFMCQRRVGL", "Saccharomyces cerevisiae", 0.78],
  ["TSRLPPSPPPPP", "Saccharomyces cerevisiae", 0.696],
  ["QRTAACGSQRNR", "Saccharomyces cerevisiae", 0.682],
  ["HLPPLPRPPSLT", "Saccharomyces cerevisiae", 0.705],
  ["KRLKKKKQSGGK", "Saccharomyces cerevisiae", 0.71],
  ["ALRGLWFPFSCL", "Saccharomyces cerevisiae", 0.393]
]}
